# Tested on: SK-MEL-28 melanoma
# experimental_protocol: NCI tumour cell line growth inhibition, 48 h
measured_endpoint: TGI

In [3]: df
Out[3]:
                                   compound  experimental_system    result
0  COc1cccc(NC(=O)/C(CC(=O)CC(c2ccccc2)c2c(O)c3ccccc3oc2=O)=N\NC(C)(C)C)c1OC (stereo unspecified)   SK-MEL-28 melanoma  > 100 µM
1  CC(C)(O)CS(=O)(=O)Nc1ccc2c(c1)CCN(C(=O)COc1cccnc1)C2   SK-MEL-28 melanoma  > 100 µM

Incoming: Look at this compound and give its reported TGI. CC(C)(C)c1nn(-c2ccccc2)c2c1C(=O)CSC(c1ccccc1Cl)N2 (stereo unspecified)
Outgoing: 22.5 µM

Incoming: Then this compound: `NNC(=O)c1ccccc1NC(=O)/C(=C/c1ccccc1O)NC(=O)c1ccccc1`
Outgoing: > 100 µM

Incoming: Then this compound: `CN(C)c1ccc(/C=c2/c3ccccc3n3nc4ccccc4c23)cc1`
Outgoing: > 100 µM

Incoming: Then this compound: `CC(=O)[C@@]1(O)CC[C@H]2[C@@H]3C[C@H](C)C4=CC(=O)CC[C@]4(C)[C@H]3[C@@H](O)C[C@@]21C`
Outgoing: > 100 µM

Incoming: Then this compound: `O=C(CN1CCN(CCCOc2c(-c3ccccc3)oc3ccccc3c2=O)CC1)Nc1ccc(Cl)cc1C(=O)c1ccccc1Cl`
Outgoing: 15.2 µM
